tested on: human lung cancer strain NCI-H441; assay type: cell-based
Where a SMILES comes first, the peptide text is derived from it. Bridges are numbered along the chain shown (N, C = ends). [ ]: non-standard residue; d: D form. The star is where a group is joined. hPhe(3-Cl-4-CF3) = N[C@@H](CCc1ccc(C(F)(F)F)c(Cl)c1)C(=O)O; NPrPhe(4-CF3) = CCCN[C@@H](Cc1ccc(C(F)(F)F)cc1)C(=O)O; NMeGly(cPent) = CN[C@H](C(=O)O)C1CCCC1; Pro(4,4-F2) = O=C(O)[C@@H]1CC(F)(F)CN1; NMeD = CN[C@@H](CC(=O)O)C(=O)O; NMeL = CN[C@@H](CC(C)C)C(=O)O; Morpholide = C1CN(*)CCO1; NMeA = CN[C@@H](C)C(=O)O; Ac5c = NC1(C(=O)O)CCCC1; Aze = O=C(O)[C@@H]1CCN1; Ac4c = NC1(C(=O)O)CCC1; Sar = CNCC(=O)O
property.measured: IC50 (nM)
Use nM as the unit, but write only the number.

Consider the reported IC50 for these compounds:
compound	unit.spec	IC50
CCC[C@H]1C(=O)N[C@@H]([C@@H](C)CC)C(=O)N(C)CC(=O)N(C)[C@H]2C/C=C\CCN(C2=O)[C@@H](Cc2ccc(C)cc2)C(=O)N(C)CC(=O)N[C@@H](CCc2ccc(Cl)c(OC)c2)C(=O)N2C[C@H](OCC)C[C@H]2C(=O)NC2(CC(C)(C)C2)C(=O)N(C)[C@@H](C2CCCC2)C(=O)N(C)[C@H](C(=O)N(C)C)CC(=O)N1C	nM	59.4
CCCN1C(=O)CN(C)C(=O)CN(C)C(=O)[C@H]([C@@H](C)CC)NC(=O)[C@H](CC(C)C)N(C)C(=O)C[C@@H](C(=O)N2CCOCC2)N(C)C(=O)[C@H](C2CCCC2)N(C)C(=O)C2(CCCC2)NC(=O)[C@@H]2CC(F)(F)CN2C(=O)[C@H](CCc2ccc(C(F)(F)F)c(Cl)c2)NC(=O)CN(C)C(=O)[C@@H]1Cc1ccc(C(F)(F)F)cc1 [PP0195] ([NMeL]I[Sar][Sar][NPrPhe(4-CF3)][Sar][hPhe(3-Cl-4-CF3)][Pro(4,4-F2)][Ac5c][NMeGly(cPent)][NMeD]-Morpholide; lactam N-11)	nM	2.7
CCCN1C(=O)[C@@H]2CCN2C(=O)[C@H](C)N(C)C(=O)[C@H]([C@@H](C)CC)NC(=O)[C@H](CC(C)C)N(C)C(=O)C[C@@H](C(=O)N(C)C)NC(=O)[C@H](C2CCCC2)N(C)C(=O)C2(CCC2)NC(=O)[C@@H]2CCCN2C(=O)[C@H](CCc2ccc(C(F)(F)F)c(Cl)c2)NC(=O)CN(C)C(=O)[C@@H]1Cc1ccc(C(F)(F)F)cc1 [PP0380] ([NMeL]I[NMeA][Aze][NPrPhe(4-CF3)][Sar][hPhe(3-Cl-4-CF3)]P[Ac4c][NMeGly(cPent)]D-NMe2; lactam N-11)	nM	16.4

# returns recorded IC50 (system: human lung cancer strain NCI-H441) for CCCN(C)C(=O)[C@@H]1CC(=O)N(C)[C@@H](CC2CCC2)C(=O)N[C@@H]([C@@H](C)CC)C(=O)N(C)CC(=O)N(C)[C@H]2C/C=C\CCN(C2=O)[C@@H](Cc2ccc(C(F)(F)F)cc2)C(=O)N(C)CC(=O)N[C@@H](CCc2cc(F)c(C(F)(F)F)c(F)c2)C(=O)N2C[C@H](OCC)C[C@H]2C(=O)NC2(CCC2)C(=O)N(C)[C@@H](C2CCCC2)C(=O)N1C 8

Now consider CC[C@H](C)[C@@H]1NC(=O)[C@H](CC(C)C)N(C)C(=O)C[C@@H](C(=O)N2CCOCC2)N(C)C(=O)[C@H](C2CCCC2)N(C)C(=O)C2(CCCC2)NC(=O)[C@@H]2CCCN2C(=O)[C@H](CCc2ccc(C(F)(F)F)c(Cl)c2)NC(=O)CN(C)C(=O)[C@H](Cc2ccc(Cl)cc2)N2CC=CC[C@@H](C2=O)N(C)C(=O)CN(C)C1=O and answer again. 8.9

====

Kd by entry:
molecular target: GDP-bound KRAS wild-type protein (Homo sapiens); experiment: Binding to KRAS by surface plasmon resonance (SPR), dissociation constant KD; settings: Single Cycle Kinetics
Sequence (P01116 1-188 isoform P01116-2): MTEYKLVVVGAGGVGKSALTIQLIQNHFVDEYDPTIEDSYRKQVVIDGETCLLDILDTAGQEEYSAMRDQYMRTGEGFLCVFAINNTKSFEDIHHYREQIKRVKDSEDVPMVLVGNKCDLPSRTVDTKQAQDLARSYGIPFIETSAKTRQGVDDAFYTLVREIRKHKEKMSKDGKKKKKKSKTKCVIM
Where a SMILES comes first, the peptide text is derived from it. Bridges are numbered along the chain shown (N, C = ends). [ ]: non-standard residue; d: D form. The star is where a group is joined. hPhe(3,5-F2-4-CF3) = N[C@@H](CCc1cc(F)c(C(F)(F)F)c(F)c1)C(=O)O; NPrPhe(4-CF3) = CCCN[C@@H](Cc1ccc(C(F)(F)F)cc1)C(=O)O; NMeGly(cPent) = CN[C@H](C(=O)O)C1CCCC1; Nva(3-Et) = CCC(CC)[C@H](N)C(=O)O; NMeD = CN[C@@H](CC(=O)O)C(=O)O; NMeL = CN[C@@H](CC(C)C)C(=O)O; Morpholide = C1CN(*)CCO1; Ac5c = NC1(C(=O)O)CCCC1; Aze = O=C(O)[C@@H]1CCN1; Sar = CNCC(=O)O

Consider the reported Kd for these compounds:
compound	value.observed
CCC[C@H]1C(=O)N[C@@H]([C@@H](C)CC)C(=O)N(C)CC(=O)N(C)[C@H]2C/C=C\CCN(C2=O)[C@@H](Cc2ccc(C(F)(F)F)cc2)C(=O)N(C)CC(=O)N[C@@H](CCc2ccc(C(F)(F)F)c(OC)c2)C(=O)N2CC3(CC3)C[C@H]2C(=O)NC2(CCC2)C(=O)N(C)[C@@H]([C@@H](C)CC)C(=O)N(C)[C@H](C(=O)N(C)C)CC(=O)N1C	0.24 nM
CCCC[C@@H]1NC(=O)C[C@@H](C(=O)N(C)C)N(C)C(=O)[C@H](C2CCCC2)N(C)C(=O)C2(CC(C)(C)C2)NC(=O)[C@@H]2C[C@@H](OCC)CN2C(=O)[C@H](CCc2cc(F)c(C(F)(F)F)c(F)c2)NC(=O)CN(C)C(=O)[C@H](Cc2ccc(C(F)(F)F)cc2)N2CC/C=C\C[C@@H](C2=O)N(C)C(=O)CN(C)C(=O)[C@H]([C@@H](C)CC)NC1=O	0.2 nM
CCC[C@H]1C(=O)N[C@@H](C23CC(C2)C3)C(=O)N2CCC[C@H]2C(=O)N(C)[C@H]2C/C=C\CCN(C2=O)[C@@H](Cc2ccc(C)cc2)C(=O)N(C)CC(=O)N[C@@H](CCc2ccc(C(F)(F)F)c(OC)c2)C(=O)N2C[C@H](OCC)C[C@H]2C(=O)N(C)C2(CCC2)C(=O)N(C)[C@@H](C2CCCC2)C(=O)N(C)[C@H](C(=O)N(C)C)CC(=O)N1C	1.8 nM
CCCOC[C@@H]1NC(=O)C[C@@H](C(=O)N(C)CCC)N(C)C(=O)[C@H](C2CCCC2)N(C)C(=O)C2(CC(C)(C)C2)NC(=O)[C@@H]2C[C@@H](OCC)CN2C(=O)[C@H](CCc2cc(F)c(C(F)(F)F)c(F)c2)NC(=O)CN(C)C(=O)[C@H](Cc2ccc(C(F)(F)F)cc2)N2CC/C=C\C[C@@H](C2=O)N(C)C(=O)CN(C)C(=O)[C@H]([C@@H](C)CC)NC1=O	0.35 nM

# Kd lookup, item CCCO[C@@H]1C[C@H]2C(=O)NC3(CC(C)(C)C3)C(=O)N(C)[C@@H](C3CCCC3)C(=O)N(C)[C@H](C(=O)N(C)CC)CC(=O)N(C)[C@@H](COCC)C(=O)N[C@@H]([C@@H](C)CC)C(=O)N3C[C@@H](C)C[C@H]3C(=O)N(C)[C@H]3C/C=C\CCN(C3=O)[C@@H](Cc3ccc(C)cc3)C(=O)N(C)CC(=O)N[C@@H](CCc3cc(F)c(C(F)(F)F)c(F)c3)C(=O)N2C1 3.1 nM

Now consider CCC[C@H]1C(=O)N[C@@H]([C@@H](C)CC)C(=O)N2CCC[C@H]2C(=O)N(C)[C@H]2C/C=C\CCN(C2=O)[C@@H](Cc2ccc(C)cc2)C(=O)N(C)CC(=O)N[C@@H](CCc2ccc(C(F)(F)F)c(OC)c2)C(=O)N2C[C@H](OCC)C[C@H]2C(=O)OC2(CCC2)C(=O)N(C)[C@@H](C2CCCC2)C(=O)N(C)[C@H](C(=O)N(C)C)CC(=O)N1C and answer again. 0.66 nM

Now consider CCO[C@@H]1C[C@H]2C(=O)NC3(CC(C)(C)C3)C(=O)N(C)[C@@H](C3CCCC3)C(=O)N(C)[C@H](C(=O)N(C)C)CC(=O)N[C@@H](CC(C)C)C(=O)N[C@@H]([C@@H](C)CC)C(=O)N(C)CC(=O)N(C)[C@H]3C/C=C\CCN(C3=O)[C@@H](Cc3ccc(C(F)(F)F)cc3)C(=O)N(C)CC(=O)N[C@@H](CCc3ccc(C(F)(F)F)c(OC)c3)C(=O)N2C1 and answer again. 0.13 nM

Now consider CCCN1C(=O)CN(C)C(=O)[C@@H]2CCN2C(=O)[C@H](C(CC)CC)NC(=O)[C@H](CC(C)C)N(C)C(=O)C[C@@H](C(=O)N2CCOCC2)N(C)C(=O)[C@H](C2CCCC2)N(C)C(=O)C2(CCCC2)NC(=O)[C@@H]2CCCN2C(=O)[C@H](CCc2cc(F)c(C(F)(F)F)c(F)c2)NC(=O)CN(C)C(=O)[C@@H]1Cc1ccc(C(F)(F)F)cc1 [PP0785] ([NMeL][Nva(3-Et)][Aze][Sar][NPrPhe(4-CF3)][Sar][hPhe(3,5-F2-4-CF3)]P[Ac5c][NMeGly(cPent)][NMeD]-Morpholide; lactam N-11) and answer again. 3 nM

Now consider CCC[C@H]1C(=O)N[C@@H]([C@@H](C)CC)C(=O)N2CCCC[C@H]2C(=O)N(C)[C@H]2C/C=C\CCN(C2=O)[C@@H](Cc2ccc(C)cc2)C(=O)N(C)CC(=O)N[C@@H](CCc2ccc(C(F)(F)F)c(Cl)c2)C(=O)N2C[C@H](OCC)C[C@H]2C(=O)N(C)C2(CCC2)C(=O)N(C)[C@@H](C2CCCC2)C(=O)N(C)[C@H](C(=O)N(C)C)CC(=O)N1C and answer again. 1.7 nM

Now consider CCCO[C@@H]1C[C@H]2C(=O)NC3(CC(C)(C)C3)C(=O)N(C)[C@@H](C3CCCC3)C(=O)N(C)[C@H](C(=O)N(C)CC)CC(=O)N(C)[C@@H](COCC)C(=O)N[C@@H]([C@@H](C)CC)C(=O)N(C3CC3)CC(=O)N(C)[C@H]3C/C=C\CCN(C3=O)[C@@H](Cc3ccc(C)cc3)C(=O)N(C)CC(=O)N[C@@H](CCc3ccc(C(F)(F)F)c(OC)c3)C(=O)N2C1 and answer again. 0.97 nM

Now consider C#CC[C@H]1C(=O)N[C@@H]([C@@H](C)CC)C(=O)N2CCC[C@H]2C(=O)N(C)[C@H]2C/C=C\CCN(C2=O)[C@@H](Cc2ccc(C(F)(F)F)cc2)C(=O)N(C)CC(=O)N[C@@H](CCc2ccc(C(F)(F)F)c(OC)c2)C(=O)N2C[C@H](OCC)C[C@H]2C(=O)OC2(CCC2)C(=O)N(C)[C@@H](C2CCCC2)C(=O)N(C)[C@H](C(=O)N(C)C)CC(=O)N1C and answer again. 0.33 nM
